- ASSAY_OVERVIEW: fission yeast growth modulation, primary screen, strain 972, OD600, 24 h, no modulator (AID 1090);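 note: basal condition with compound alone and no growth modifier present; test concentration not given here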
- PROTOCOL_CONDITIONS: S. pombe 972 growth, higher = more signal, called active from +8 up or from −8 down
Tick condition met if z-score is 0.7 or greater. Tick condition not met if z-score is less than 0.7.

COCCOC(=O)N1C(=O)[C@@]2(c3cc(C#CCNC(N)=O)ccc31)[C@H](C(=O)N1CCN(c3ncccn3)CC1)[C@H]1C(=O)O[C@H](c3ccccc3)[C@H](c3ccccc3)N1[C@@H]2c1ccc(O)cc1 | condition not met
CC(C)(C)OC(=O)CC[C@@]1(C(=O)N2CCOCC2)N=C(c2ccc(OCCCO)cc2)O[C@@H]1c1ccccc1CN=[N+]=[N-] | condition not met
C=CCN1C(=O)[C@]2(O[C@H](CCO)[C@@H]([Si](C)(C)c3ccc(OC)cc3)[C@@H]2C)c2cc(N3C(=O)c4ccccc4Oc4ccccc43)ccc21 | condition met
CCOC(=O)C[C@H]1[C@H](OC(=O)c2ccc(-c3ccccc3)cc2)[C@@H](NC(=O)c2ccc(-c3ccccc3)cc2)c2cc(OCCCO)ccc2N1C(=O)c1ccccc1 | condition met

## Input hey, is z-score for this one >= 0.7? COC(=O)[C@H](Cc1ccccc1)N1CC(C)(OC)O[C@@H](Cc2ccccc2)[C@H]1/C=C/C1CC1 (some centres not stated)
## Output condition not met

## Input hey, is z-score for this one >= 0.7? `[N-]=[N+]=Nc1ccccc1C[C@@]1(C(=O)NCc2ccccc2)N=C(c2ccc(OCCCO)cc2)O[C@@H]1c1ccccc1`
## Output condition not met

## Input hey, is z-score for this one >= 0.7? N#Cc1ccc(NN2C(C(O)c3ccc(B(O)O)cc3)C=CC3CN(c4ccccc4)C(=O)C32)cc1 (configuration not stated)
## Output condition met

----------
- STUDY_TARGET: Epidermal growth factor receptor (Homo sapiens)
- ASSAY_OVERVIEW: EGFR binders on small-molecule microarrays, primary screen, biochemical, small-molecule microarray, 635 nm fluorescence (AID 1104);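 note: score merges 667 nm emission intensity with spot signal to noise over triplicate slides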
- PROTOCOL_CONDITIONS: EGFR binding, higher = more signal
List of composite z-score values.

Previously resolved entries follow.
COC(=O)[C@@]1(Cc2ccc(OC)cc2)[C@@H]2[C@@H](CC(=O)[C@H]2CC(=O)C(=O)N(C)C)CN1C(=O)c1ccccc1 | 0.638
C[C@@]1([C@@H](NS(=O)(=O)c2cccc3cccnc23)c2ccc(-c3ccccc3)cc2)C[C@H]1C1CCCCC1 | 0.0823
[N-]=[N+]=NCc1ccccc1C[C@@]1(C(N)=O)N=C(c2ccc(OCCCO)cc2)O[C@@H]1c1ccccc1N=[N+]=[N-] | -0.547
COC(=O)[C@@]1(Cc2ccccc2)[C@H]2c3cc(C(=O)N(C)C)n(Cc4ccc(Cl)c(C(F)(F)F)c4)c3C[C@H]2CN1C(=O)c1ccccc1 | 0.603
CC(C)c1ccc(NN2C(C(O)C3CCCCC3)C=CC3C(=O)N(c4ccccc4)C(=O)C32)cc1 (stereo not drawn) | 0.478

get_value(item= `O=C(N1CCOCC1)[C@]1(CCS(=O)(=O)c2ccccc2)N=C(c2ccc(OCCCO)cc2)O[C@@H]1c1ccccc1` , readout=composite z-score) returns -0.113

get_value(item= `CCOC(=O)C=C1C[C@@H](c2cccc([N+](=O)[O-])c2)O[C@@H](c2cccc([N+](=O)[O-])c2)O1` , readout=composite z-score) returns 0.46

get_value(item= `CC(C)[Si](C#Cc1ccccc1)(O[C@H](c1ccccc1)c1cn(Cc2ccccc2)nn1)C(C)C` , readout=composite z-score) returns 0.726
